- System: DNA polymerase III holoenzyme (E. coli)
- ASSAY: qHTS Assay for Inhibitors of DNA Polymerase III Holoenzyme System
- RUN PARAMETERS: reconstituted DNA polymerase III holoenzyme replication, biochemical; series mostly up to 57.1 µM
Among all 71,000 compounds or so, about 180 (0.25%) were called active. What follows is part of a selection rich in actives, with near analogues and random picks from the rest.
MEASURED PARAMETER: activity change, negative = inhibition

Inquiry: Please give the documented activity change, negative = inhibition of COC(=O)[C@@]1(Cc2ccc(F)cc2)[C@H]2c3cc(C(=O)N4CCCC4)n(C[C@H](O)CO)c3C[C@H]2CN1C(=O)c1ccccc1
Reply text: inactive

Inquiry: Please give the documented activity change, negative = inhibition of CC[C@]1([C@H]2O[C@@H]([C@@H]3O[C@](O)(CO)[C@@H](C)C[C@H]3C)C[C@H]2C)CC[C@@H]([C@]2(C)CC[C@@]3(C[C@@H](O)[C@@H](C)[C@@H]([C@H](C)[C@H](OC)[C@H](C)C(=O)O)O3)O2)O1
Reply text: inactive

Inquiry: Please give the documented activity change, negative = inhibition of CC(=O)Oc1ccccc1C(=O)Nc1ncc([N+](=O)[O-])s1
Reply text: inactive
